Listing of pIC50 toward Liver carboxylesterase 1 (Homo sapiens, UniProt P23141), each taken from a published source.
Reminder that pIC50 is minus the log10 of a molar concentration.

Entry CC(=O)O[C@H]1CC[C@]2(C)[C@H]3C(=O)C=C4[C@@H]5C[C@@](C)(C(N)=O)CC[C@]5(C)CC[C@@]4(C)[C@]3(C)CC[C@H]2C1(C)C , tested on Liver carboxylesterase 1 (Homo sapiens, UniProt P23141), has a reported pIC50 of 4.96

For O=C(CCCCCCc1ccccc1)c1nnn[nH]1 on Liver carboxylesterase 1 (Homo sapiens, UniProt P23141), measured pIC50 was 7.10

# pIC50 measured on Liver carboxylesterase 1 (Homo sapiens, UniProt P23141) for item C[C@H]1[C@H](C)CC[C@]2(C(=O)O)CC[C@]3(C)C(=CC[C@@H]4[C@@]5(C)CC[C@H](O)C(C)(C)[C@@H]5CC[C@]43C)[C@H]12 = 7.00

// assay Liver carboxylesterase 1 (Homo sapiens, UniProt P23141), entry O=C(CCCCCCc1ccccc1)c1ncc(-c2cc(=O)[nH]c(=O)[nH]2)o1 , pIC50 value = 4.52

Liver carboxylesterase 1 (Homo sapiens, UniProt P23141) assay, molecule O=C(CCCCCCc1ccccc1)c1cccnn1 , recorded pIC50 = 5.30

For COc1ccnc(-c2cnc(C(=O)CCCCCCc3ccccc3)o2)c1 on Liver carboxylesterase 1 (Homo sapiens, UniProt P23141), measured pIC50 was 6.30

Field pIC50 (system: Liver carboxylesterase 1 (Homo sapiens, UniProt P23141)) for entry O=C(CCCCCc1ccccc1)c1nc2ncccc2o1 = 9.00

Item C=C1CC[C@]2(C(=O)O)CC[C@]3(C)C(=CC[C@@H]4[C@@]5(C)CC[C@H](O)[C@@](C)(CO)[C@@H]5CC[C@]43C)[C@@H]2C1 ; assay system Liver carboxylesterase 1 (Homo sapiens, UniProt P23141); pIC50 reported as 7.00

Log: Liver carboxylesterase 1 (Homo sapiens, UniProt P23141), molecule CC(=O)O[C@H]1CC[C@]2(C)[C@H]3C(=O)C=C4[C@@H]5C[C@@](C)(C(=O)OCCN(C)C)CC[C@]5(C)CC[C@@]4(C)[C@]3(C)CC[C@H]2C1(C)C , pIC50 = 4.91

Tested system Liver carboxylesterase 1 (Homo sapiens, UniProt P23141); pIC50 recorded for O=C(CCCCCc1ccccc1)C(F)(F)F was 9.30

###

A compilation of IC50 values for UniProt:P23141 from the published literature.
The reply should contain only the number, in µM.

For N#Cc1cccc(-c2ccc(C(=O)CCCCCCc3ccccc3)nn2)n1 on UniProt:P23141, measured IC50 was 12

Fill in: UniProt:P23141 IC50 for CCCCCCCC/C=C\CCCCCCCC(=O)c1nc2ccccc2o1 = 10

The molecule N#Cc1cnc(C(=O)CCc2ccc(COc3ccccc3)cc2)o1 on UniProt:P23141: IC50 was 0.1
